# assay-info: cn = amount concentration of the nth substance listed, in mol/dm3
# assay-setup: 293 K, Ring tensiometer, c1 = 0.0001
parameter: surface tension liquid-gas (mN/m)
One number for each entry, in mN/m.

Worked cases, surface tension liquid-gas given:
CCCCCCCCCCCC[N+](C)(C)CC.[Br-] [dodecyl ethyl dimethylammonium bromide] + O
70
CCCCCCCCCCCCCC[N+](C)(C)C.[Br-] [tetradecyltrimethylammonium bromide] + O
69.9
CCCCCCCCCCCCCCCCS(=O)(=O)[O-].[Na+] [sodium hexadecylsulfonate] + O
66.2

Here is the next item to consider.
GET /value?item= CCCCCCCCCCCCCCCC[n+]1ccccc1.[Br-] [1-hexadecylpyridinium bromide] + O &field=surface tension liquid-gas returns 63
